# CC50 values compiled below
test system: HepG2; assay: Cytotoxicity against human HepG2 cells assessed as reduction in cell viability after 72 hrs by MTT assay; type: cell-based; conditions: hepg2, 72 h

| compound | CC50 |
| --- | --- |
| O=[N+]([O-])c1c(CS(=O)(=O)c2ccccc2)nc2c(Br)cc(Br)cn12 | > 31 µM |

Ask: Need CC50 of O=[N+]([O-])c1c(CS(=O)(=O)c2ccccc2)nc2c(-c3ccc(Cl)cc3)cc(Cl)cn12 , thanks.
Reply: > 3.9 µM

Ask: Please give the measured CC50 for this compound: O=[N+]([O-])c1c(CS(=O)(=O)c2ccccc2)nc2c(-c3ccccc3F)cc(Cl)cn12
Reply: > 3.9 µM

Ask: What value of CC50 has been reported for the following compound? O=[N+]([O-])c1c(CS(=O)(=O)c2ccccc2)nc2c(-c3ccccc3CO)cc(Cl)cn12
Reply: 88 µM

Ask: What value of CC50 has been reported for the following compound? O=[N+]([O-])c1c(CS(=O)(=O)c2ccccc2)nc2c(-c3cccnc3)cc(Cl)cn12
Reply: > 31.3 µM

Ask: Given O=[N+]([O-])c1c(CS(=O)(=O)c2ccccc2)nc2c(-c3ccc(C(F)(F)F)cc3)cc(Cl)cn12 , state its recorded CC50.
Reply: > 3.9 µM

Ask: What does the record list as CC50 for O=[N+]([O-])c1c(CS(=O)(=O)c2ccccc2)nc2c(-c3ccco3)cc(Cl)cn12 ?
Reply: > 3.9 µM

Ask: Would you kindly share the measured CC50 for Cc1ccc(C(=O)Nc2ccc(S(=O)(=O)O)c3cc(S(=O)(=O)O)cc(S(=O)(=O)O)c23)cc1NC(=O)c1cccc(NC(=O)Nc2cccc(C(=O)Nc3cc(C(=O)Nc4ccc(S(=O)(=O)O)c5cc(S(=O)(=O)O)cc(S(=O)(=O)O)c45)ccc3C)c2)c1 ?
Reply: > 100 µM

Ask: Request the reported CC50 associated with N#Cc1ccc(-c2cc(Cl)cn3c([N+](=O)[O-])c(CS(=O)(=O)c4ccccc4)nc23)cc1
Reply: > 3.9 µM

Ask: Would you mind telling me what CC50 value was observed for CCN(CC)c1ccc(-c2cc(Cl)cn3c([N+](=O)[O-])c(CS(=O)(=O)c4ccccc4)nc23)cc1 ?
Reply: > 15.6 µM

Ask: CC50 for O=[N+]([O-])c1c(CS(=O)(=O)c2ccccc2)nc2c(-c3cccc(F)c3)cc(Cl)cn12 ?
Reply: > 12.5 µM

Ask: Param item = CSc1ccc(OCc2ncc([N+](=O)[O-])n2C)cc1 ; retrieve measured CC50.
Reply: > 200 µM

Ask: Request the reported CC50 associated with O=[N+]([O-])c1c(CS(=O)(=O)c2ccccc2)nc2c(-c3cccs3)cc(Cl)cn12
Reply: > 3.9 µM

Ask: I would be grateful if you could share the reported CC50 for O=Cc1ccc(-c2cc(Cl)cn3c([N+](=O)[O-])c(CS(=O)(=O)c4ccccc4)nc23)cc1 .
Reply: > 31.2 µM

----------
assay: Selectivity index, ratio of CC50 for human HepG2 cells to IC50 for trypomastigote stage of Trypanosoma brucei brucei AnTat 1.9; format: toxicity; settings: read-out: Ratio CC50/IC50
readout: selectivity ratio

Below are worked cases with known answers.
| smilesText | selectivity ratio |
| --- | --- |
| O=[N+]([O-])c1c(CS(=O)(=O)c2ccccc2)nc2c(-c3ccncc3)cc(Cl)cn12 | > 200 |
| O=[N+]([O-])c1c(CS(=O)(=O)c2ccccc2)nc2c(-c3ccccc3CO)cc(Cl)cn12 | 550 |
| O=[N+]([O-])c1c(CS(=O)(=O)c2ccccc2)nc2c(-c3cccc(CO)c3)cc(Cl)cn12 | > 167 |

Ask: Return reported selectivity ratio; argument: O=[N+]([O-])c1c(CS(=O)(=O)c2ccccc2)nc2c(-c3ccccc3)cc(Cl)cn12
Reply: > 25.6

----------
test system: HepG2; assay: Cytotoxicity against human HepG2 cells assessed as reduction in cell viability after 72 hrs by MTT assay; assay type: cell-based; details: hepg2, 72 h
readout: CC50

Study these solved cases before continuing.
| compound | targetEntity | reportedMeasurement |
| --- | --- | --- |
| O=[N+]([O-])c1c(CS(=O)(=O)c2ccccc2)nc2c(-c3ccc(F)cc3)cc(Cl)cn12 | HepG2 | > 15.6 µM |
| NCCC[C@](N)(C(=O)O)C(F)F [EFLORNITHINE, (S)-] | HepG2 | > 100 µM |

Moving on to another compound below.
Ask: Value wanted: CC50 (HepG2) of entry O=[N+]([O-])c1c(CS(=O)(=O)c2ccccc2)nc2c(-c3cccc(C(F)(F)F)c3)cc(Cl)cn12
Reply: > 12.5 µM

----------
Recorded selectivity ratio, one value per entry.
experiment: Selectivity index, ratio of CC50 for human HepG2 cells to IC50 for trypomastigote stage of Trypanosoma brucei brucei AnTat 1.9; type: toxicity; conditions: read-out: Ratio CC50/IC50

Solved entries (count: 4):
| smilesText | reportedMeasurement |
| --- | --- |
| O=[N+]([O-])c1c(CS(=O)(=O)c2ccccc2)nc2c(-c3ccccc3C(F)(F)F)cc(Cl)cn12 | 324 |
| O=[N+]([O-])c1c(CS(=O)(=O)c2ccccc2)nc2c(-c3cccc(F)c3)cc(Cl)cn12 | > 62.5 |
| O=[N+]([O-])c1c(CS(=O)(=O)c2ccccc2)nc2c(-c3cccnc3)cc(Cl)cn12 | > 136 |
| O=[N+]([O-])c1c(CS(=O)(=O)c2ccccc2)nc2c(-c3ccc(F)cc3)cc(Cl)cn12 | > 50.3 |

Ask: Given the entry O=Cc1ccc(-c2cc(Cl)cn3c([N+](=O)[O-])c(CS(=O)(=O)c4ccccc4)nc23)cc1 , report its measured selectivity ratio.
Reply: > 390
